System: Arthrobacter 3 (Arthrobacter sp.)
MEASUREMENT_PROTOCOL: relative growth (AUC of 72 h growth curve relative to DMSO control, dAUC) (ratio); higher = more growth (less inhibition), active = hit call of the paper
PARTICULARS: 20 µM
MEASURED_ATTRIBUTE: relative growth
Give a plain numeric answer without units written out.

Inquiry: For the compound Clc1ccc(C(c2ccc(Cl)cc2)C(Cl)(Cl)Cl)cc1 , what relative growth is on record?
Reply text: 0.316

Inquiry: For the compound N#CC(CCc1ccc(Cl)cc1)(Cn1cncn1)c1ccccc1 (stereo not given) , what relative growth is on record?
Reply text: 0.666

====

System: Flavobacterium 2 (Flavobacterium succinicans)
MEASUREMENT_PROTOCOL: relative growth (AUC of 72 h growth curve relative to DMSO control, dAUC) (ratio); higher = more growth (less inhibition), active = hit call of the paper
PARTICULARS: 20 µM
Returns Met if the recorded relative growth is greater than or equal to 1, and Not met otherwise.

>>> df
                                   molecule  class_name
0        COc1ccc(-c2ccccc2)cc1NNC(=O)OC(C)C     Not met
1  CCOc1ccc(C(C)(C)COCc2cccc(Oc3ccccc3)c2)cc1     Not met
2  CC(C)N(C(=O)COc1nnc(C(F)(F)F)s1)c1ccc(F)cc1     Not met
3  CC1(C)C(C=C(Cl)Cl)C1C(=O)OC(C#N)c1cccc(Oc2ccccc2)c1 (configuration not stated)         Met
4             CC1=NNC(=O)N(/N=C/c2cccnc2)C1         Met

Inquiry: Form field: relative growth at least 1? Entry: COc1cc(OC)nc(NC(=O)NS(=O)(=O)c2ncccc2C(=O)N(C)C)n1
Reply text: Met

Inquiry: Form field: relative growth at least 1? Entry: ClC1C(Cl)C(Cl)C(Cl)C(Cl)C1Cl (configuration not stated)
Reply text: Not met

Inquiry: Form field: relative growth at least 1? Entry: C[N+]1(C)CCCCC1
Reply text: Met

====

System: Pseudomonas 4 (Pseudomonas peli)
MEASUREMENT_PROTOCOL: relative growth (AUC of 72 h growth curve relative to DMSO control, dAUC) (ratio); higher = more growth (less inhibition), active = hit call of the paper
PARTICULARS: 20 µM
Reported relative growth values are given for each entry in this list.
Give a plain numeric answer without units written out.

Previously resolved entries follow.
MOLECULE	relative growth
O=C(Nc1ccc(F)cc1F)c1cccnc1Oc1cccc(C(F)(F)F)c1	1.01
COC(=O)NC(=S)Nc1ccccc1NC(=S)NC(=O)OC	0.95
COCC(=O)N(c1c(C)cccc1C)C(C)C(=O)OC (stereo unspecified)	0.995
CNC(=O)ON=C(C)SC	0.946
CC1(C)C(C=C(Cl)Cl)C1C(=O)OC(C#N)c1ccc(F)c(Oc2ccccc2)c1 (stereo unspecified)	0.964

Inquiry: For the molecule C#CCN1C(=O)COc2cc(F)c(N3C(=O)C4=C(CCCC4)C3=O)cc21 , what relative growth is on record?
Reply text: 0.985

Inquiry: For the molecule CCC(C)(C)C(=O)OC1=C(c2ccc(Cl)cc2Cl)C(=O)OC12CCCCC2 , what relative growth is on record?
Reply text: 1

====

Reported relative growth values are given for each entry in this list.
System: Pseudomonas 6 (Pseudomonas sp.)
MEASUREMENT_PROTOCOL: relative growth (AUC of 72 h growth curve relative to DMSO control, dAUC) (ratio); higher = more growth (less inhibition), active = hit call of the paper
PARTICULARS: 20 µM

Previously resolved entries follow.
>>> print(df.to_string())
                    cpd_smiles                system_under_test          result
0  N#C/N=C1\SCCN1Cc1ccc(Cl)nc1  Pseudomonas 6 (Pseudomonas sp.)    1 (inactive)
1           O=C(O)CNCP(=O)(O)O  Pseudomonas 6 (Pseudomonas sp.)  1.1 (inactive)

Inquiry: For the compound CCc1cccc(C)c1N(C(=O)CCl)[C@@H](C)COC , what relative growth is on record?
Reply text: 1.13 (inactive)

Inquiry: For the compound CCCCc1c(C)nc(NCC)nc1OS(=O)(=O)N(C)C , what relative growth is on record?
Reply text: 1 (inactive)

====

Reported relative growth values are given for each entry in this list.
Tested on: Flavobacterium 2 (Flavobacterium succinicans)
MEASUREMENT_PROTOCOL: relative growth (AUC of 72 h growth curve relative to DMSO control, dAUC) (ratio); higher = more growth (less inhibition), active = hit call of the paper
PARTICULARS: 20 µM
Give a plain numeric answer without units written out.

Previously resolved entries follow.
>>> print(df.to_string())
                                   molecule                         system_under_test  number
0  CCOC(=O)OC1=C(c2cc(C)ccc2C)C(=O)N[C@]12CC[C@@H](OC)CC2  Flavobacterium 2 (Flavobacterium succinicans)    1.05
1          COP(=S)(OC)SCN1C(=O)c2ccccc2C1=O  Flavobacterium 2 (Flavobacterium succinicans)   0.975
2  CC(COc1ccc(Oc2ccccc2)cc1)Oc1ccccn1 (stereo unspecified)  Flavobacterium 2 (Flavobacterium succinicans)    1.02
3  CC(Oc1ccc(Oc2ncc(C(F)(F)F)cc2Cl)cc1)C(=O)O (stereo unspecified)  Flavobacterium 2 (Flavobacterium succinicans)   0.972

Inquiry: Could you share what relative growth was measured for CCc1cnc(C2=NC(C)(C(C)C)C(=O)N2)c(C(=O)O)c1 (stereo unspecified) , tested on Flavobacterium 2 (Flavobacterium succinicans)?
Reply text: 1.03

Inquiry: Could you share what relative growth was measured for CCOC(=O)CC(SP(=S)(OC)OC)C(=O)OCC (stereo unspecified) , tested on Flavobacterium 2 (Flavobacterium succinicans)?
Reply text: 1.02

====

Reported relative growth values are given for each entry in this list.
System: Arthrobacter 3 (Arthrobacter sp.)
MEASUREMENT_PROTOCOL: relative growth (AUC of 72 h growth curve relative to DMSO control, dAUC) (ratio); higher = more growth (less inhibition), active = hit call of the paper
PARTICULARS: 20 µM

Previously resolved entries follow.
>>> print(df.to_string())
                                   molecule            result
0  CCc1cnc(C2=NC(C)(C(C)C)C(=O)N2)c(C(=O)O)c1 (stereo not given)  0.932 (inactive)
1  Cc1cc(C)c(C2=C(OC(=O)CC(C)(C)C)C3(CCCC3)OC2=O)c(C)c1  0.789 (inactive)
2              C/C(=N\C#N)N(C)Cc1ccc(Cl)nc1  0.973 (inactive)
3  CS(=O)(=O)c1ccc(C(=O)C2C(=O)CCCC2=O)c([N+](=O)[O-])c1   1.02 (inactive)
4  ClC1C(Cl)C(Cl)C(Cl)C(Cl)C1Cl (stereo not given)  0.909 (inactive)
5  Cc1cc(C(F)(C(F)(F)F)C(F)(F)F)ccc1NC(=O)c1cccc(I)c1C(=O)NC(C)(C)CS(C)(=O)=O  0.822 (inactive)
6  O=C(Nc1ccc(F)cc1F)c1cccnc1Oc1cccc(C(F)(F)F)c1   1.07 (inactive)
7  COC(=O)c1ccccc1S(=O)(=O)NC(=O)Nc1nc(C)nc(OC)n1   1.01 (inactive)
8          CN(C)C(CSS(=O)(=O)O)CSS(=O)(=O)O   1.04 (inactive)

Inquiry: Could you share what relative growth was measured for CC1(C)[C@H](C(=O)O[C@H](C#N)c2cccc(Oc3ccccc3)c2)[C@@H]1C=C(Br)Br , tested on Arthrobacter 3 (Arthrobacter sp.)?
Reply text: 0.946 (inactive)

====

System: Argrobacterium 1 (Agrobacterium sp.)
MEASUREMENT_PROTOCOL: relative growth (AUC of 72 h growth curve relative to DMSO control, dAUC) (ratio); higher = more growth (less inhibition), active = hit call of the paper
PARTICULARS: 20 µM
Reported relative growth values are given for each entry in this list.

>>> print(df.to_string())
                              molecule  measured_attribute           result
0  N#Cc1sc2c(=O)c3ccccc3c(=O)c=2sc1C#N     relative growth  1.09 (inactive)
1                      C[N+](C)(C)CCCl     relative growth  1.01 (inactive)

Inquiry: For the molecule CCOC(=O)OC1=C(c2cc(C)ccc2C)C(=O)N[C@]12CC[C@@H](OC)CC2 , what relative growth is on record?
Reply text: 1.03 (inactive)

Inquiry: For the molecule Cc1cc(C)c(C2=C(OC(=O)CC(C)(C)C)C3(CCCC3)OC2=O)c(C)c1 , what relative growth is on record?
Reply text: 1.11 (inactive)

Inquiry: For the molecule CO/C=C(/C(=O)OC)c1ccccc1COc1cccc(C(F)(F)F)n1 , what relative growth is on record?
Reply text: 1.06 (inactive)

Inquiry: For the molecule ClC1C(Cl)C(Cl)C(Cl)C(Cl)C1Cl (stereo unspecified) , what relative growth is on record?
Reply text: 1 (inactive)
